meta.source: patent US20230151068A1

Target: biotinylated His-Avi-TEAD (194-411) (UniProt P28347)
Assay: SSM screen, enrichment after two rounds of sorting
MEASURE: enrichment score
The answer should be a number; do not append a unit.

q: Entry GSPDEYIERAKECCKKGDITCCLRYFEESGDPNVMLICLFCP (designed binder) [Q18T variant of SEQ ID NO: 1] : reported enrichment score = ?
a: -2.28

q: Entry GSPDEPIERAKECCKKGDIQCCLRYFEESGDPNVMLICLFCP (designed binder) [Y04P variant of SEQ ID NO: 1] : reported enrichment score = ?
a: 1.02

q: Entry GSPDEYIERATECCKKGDIQCCLRYFEESGDPNVMLICLFCP (designed binder) [K09T variant of SEQ ID NO: 1] : reported enrichment score = ?
a: 2.68

q: Entry GSTDEYIERAKECCKKGDIQCCLRYFEESGDPNVMLICLFCP (designed binder) [P01T variant of SEQ ID NO: 1] : reported enrichment score = ?
a: -0.57

q: Entry GSPDEYEERAKECCKKGDIQCCLRYFEESGDPNVMLICLFCP (designed binder) [I05E variant of SEQ ID NO: 1] : reported enrichment score = ?
a: -1.23

q: Entry GSPDEYIERNKECCKKGDIQCCLRYFEESGDPNVMLICLFCP (designed binder) [A08N variant of SEQ ID NO: 1] : reported enrichment score = ?
a: -9.2

q: Entry GSPGEYIERAKECCKKGDIQCCLRYFEESGDPNVMLICLFCP (designed binder) [D02G variant of SEQ ID NO: 1] : reported enrichment score = ?
a: -0.32

q: Entry GSPDEYIERAKECCKDGDIQCCLRYFEESGDPNVMLICLFCP (designed binder) [K14D variant of SEQ ID NO: 1] : reported enrichment score = ?
a: 1.27

q: Entry GSPDEYIERTKECCKKGDIQCCLRYFEESGDPNVMLICLFCP (designed binder) [A08T variant of SEQ ID NO: 1] : reported enrichment score = ?
a: -3.84
